Target: TAR RNA
Experiment: In vitro binding of resin-bound compounds to TAR RNA (OD260 of unbound RNA)
Design: species or system HIV
Details: in vitro assay; compounds of formula I on TentaGel beads incubated with TAR RNA overnight at 4° C. in TK buffer; read-out: Kd (nM), binding constants
Test Readout: Kd (nM)

Compound	Test Readout	Experimental Result
NCCCCCCCN(CC(=O)N[C@@H](CCCCN)COC(N)=O)C(=O)[C@@H](N)CCCCN [Compound DM]	Kd	256

a. NCCCCCCCNCC(=O)N[C@@H](CCCCN)C(=O)N[C@H](CCCCN)COC(N)=O [Compound BY]
b. NCCCCCCCN(CC(=O)N[C@@H](CCCCN)COC(N)=O)C(=O)OC[C@@H](N)CCCCN [Compound DK]
c. NCCCC[C@H](COC(N)=O)NC(=O)OC[C@@H](CCCCN)NC(=O)[C@H](N)CCCCN [Compound AD]
Arrange these 3 compounds in increasing order of Kd. Please respond with the labels ordered as the question requires.
a, b, c
